Values compiled from the supplement of paper PMC10515830.

- System: Danio rerio larvae (5 dpf)
- Experiment notes: difference in combined optomotor response to red, green and blue moving lines vs DMSO (percentage points); higher = stronger optomotor response than DMSO
- Protocol conditions: 10 µM; exposure time 6 h
Where a name gives a salt, the structure may show the parent alone.

{"Compound": "C[N+]1(C)[C@@H]2CC[C@H]1C[C@@H](OC(=O)C(O)c1ccccc1)C2 (stereo partly specified) [Methylhomatropine (bromide)]", "difference": -3.01}
{"Compound": "CC1CNc2c(cccc2S(=O)(=O)N[C@@H](CCCNC(=N)N)C(=O)N2CC[C@@H](C)C[C@@H]2C(=O)O)C1 (stereo partly specified)", "difference": 3.46}
{"Compound": "CN(C)CCC=C1c2ccccc2CCc2ccccc21 [Amitriptyline (hydrochloride)]", "difference": -8.17}
{"Compound": "Clc1ccc(COC(Cn2ccnc2)c2ccc(Cl)cc2Cl)c(Cl)c1 (stereo unspecified) [Miconazole (nitrate)]", "difference": -18.4}
{"Compound": "COCCOC(=O)C1=C(C)NC(C)=C(C(=O)OC(C)C)C1c1cccc([N+](=O)[O-])c1 (stereo unspecified)", "difference": -14.5}
{"Compound": "OC(Cn1cncn1)(Cn1cncn1)c1ccc(F)cc1F", "difference": 3.09}
{"Compound": "CCOc1ccc(Cc2cc([C@]34OC[C@](CO)(O3)[C@@H](O)[C@H](O)[C@H]4O)ccc2Cl)cc1", "difference": 1.51}
{"Compound": "Nc1cc(N2CCCCC2)nc(N)[n+]1[O-]", "difference": -0.063}
{"Compound": "C=C1/C(=C\\C=C2/CCC[C@]3(C)[C@@H]([C@H](C)CCCC(C)(C)O)CC[C@@H]23)C[C@@H](O)C[C@@H]1O", "difference": -3.39}
{"Compound": "CCCCN1CCCCC1C(=O)Nc1c(C)cccc1C (stereo unspecified)", "difference": 6.71}
{"Compound": "COC(=O)/C=C/C(=O)OC [Dimethyl fumarate]", "difference": 12}
{"Compound": "Nc1nc(-n2cc(C(=O)O)c(=O)c3cc(F)c(N4CC(O)C4)c(Cl)c32)c(F)cc1F", "difference": 9.67}
{"Compound": "CCCc1nc(C(C)(C)O)c(C(=O)OCc2oc(=O)oc2C)n1Cc1ccc(-c2ccccc2-c2nnn[nH]2)cc1", "difference": 0.0218}
{"Compound": "CS(=O)(=O)CCNCc1ccc(-c2ccc3ncnc(Nc4ccc(OCc5cccc(F)c5)c(Cl)c4)c3c2)o1", "difference": 1.37}
{"Compound": "COc1ccc(S(=O)(=O)Nc2ccccc2CN(C)C/C=C/c2ccc(Cl)cc2)cc1 [KN-92 (hydrochloride)]", "difference": -1.81}
{"Compound": "C/C=C1\\NC(=O)[C@H]2CSSCC/C=C/[C@H](CC(=O)N[C@H](C(C)C)C(=O)N2)OC(=O)[C@H](C(C)C)NC1=O", "difference": 8.55}

----------
- Tested on: Danio rerio larvae (5 dpf)
- Experiment notes: difference in excitability vs DMSO (percentage points); higher = more excitable than DMSO
- Protocol conditions: 10 µM; exposure time 6 h
Counter-ions that a name gives are not always drawn.
Listing: difference in excitability of selected compounds
Measurement kind: difference in excitability

{"Compound": "CC1=C(/C=C/C(C)=C\\C=C\\C(C)=C\\C(=O)O)C(C)(C)CCC1 [9-cis-Retinoic Acid]", "Measurement kind": "difference in excitability", "Numeric result": 5.5}
{"Compound": "CCCc1c2oc(C(=O)O)cc(=O)c2cc2c(=O)cc(C(=O)O)n(CC)c12 [Nedocromil (sodium salt)]", "Measurement kind": "difference in excitability", "Numeric result": -1.27}
{"Compound": "CC(C)C[C@H](NC(=O)[C@H](CCc1ccccc1)NC(=O)CN1CCOCC1)C(=O)N[C@@H](Cc1ccccc1)C(=O)N[C@@H](CC(C)C)C(=O)[C@@]1(C)CO1 [Carfilzomib]", "Measurement kind": "difference in excitability", "Numeric result": 5.53}
{"Compound": "C[C@@H](O)[C@H]1C(=O)N2C(C(=O)O)=C(S[C@@H]3CN[C@H](C(=O)Nc4cccc(C(=O)O)c4)C3)[C@H](C)[C@H]12 [Ertapenem (sodium salt)]", "Measurement kind": "difference in excitability", "Numeric result": 3.87}
